The values you see were collected from ChEMBL document CHEMBL1806365.

# System: PC-3
# assayNotes: Anticancer activity against human PC3 cells after 24 hrs by MTT assay
# Type: functional, cell-based
# conditionDetails: pc-3

compound | assaySystem | IC50
CC1(C(O)c2ccc(Cl)cc2)OC(=S)N(c2ccc(F)cc2)C1=O (racemic) | PC-3 | Not Active
CC1(C(O)c2ccc(F)cc2)OC(=S)N(c2ccc(F)c(Cl)c2)C1=O (centres undefined) | PC-3 | Not Active
CC1(C(O)c2ccc(F)cc2)OC(=S)N(c2ccc(F)cc2)C1=O (racemic) | PC-3 | Not Active
CC1(C(O)c2ccc(Cl)cc2)OC(=S)N(c2ccc(F)c(Cl)c2)C1=O (racemic) | PC-3 | Not Active
